TARGET: Cytochrome P450 1A2 (Homo sapiens) (UniProt P05177)
Sequence (P05177 whole entry, looked up): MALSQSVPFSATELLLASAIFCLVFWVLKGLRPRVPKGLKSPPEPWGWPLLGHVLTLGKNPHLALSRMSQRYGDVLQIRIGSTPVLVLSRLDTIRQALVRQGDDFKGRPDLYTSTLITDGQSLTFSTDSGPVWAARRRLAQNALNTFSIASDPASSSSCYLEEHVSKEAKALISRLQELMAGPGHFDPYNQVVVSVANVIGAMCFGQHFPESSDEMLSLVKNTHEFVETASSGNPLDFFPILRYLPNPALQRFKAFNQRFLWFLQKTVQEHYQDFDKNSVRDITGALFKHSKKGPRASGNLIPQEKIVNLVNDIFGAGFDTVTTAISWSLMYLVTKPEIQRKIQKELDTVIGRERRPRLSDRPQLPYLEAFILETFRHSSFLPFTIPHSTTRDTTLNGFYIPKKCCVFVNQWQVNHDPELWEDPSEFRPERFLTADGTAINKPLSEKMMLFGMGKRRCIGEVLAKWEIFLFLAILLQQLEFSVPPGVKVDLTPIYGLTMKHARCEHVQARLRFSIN
EXPERIMENT_SUMMARY: Cytochrome panel assay with activity outcomes
RUN_PARAMETERS: recombinant CYP, pro-luciferin dealkylation, luminescence, p450-cyp1a2; series mostly up to 57.1 µM
Screen size: about 16,000 compounds; about 5,700 (36%) were called active. Another 24% or so got no clear call; they are omitted. The call rests on the fitted dose curve; in most records, active means well fitted curve in the direction sought with a large enough effect; inconclusive means small, poorly fitted or top-dose-only effect, or effect the other way; inactive means no such curve, though single readings can be large or run the other way. The list shows a part of the results.
Labels: active, inactive

MOLECULE: Nn1c(SCC(=O)N2CCOCC2)nnc1-c1ccccc1Cl
LABEL_VALUE: inactive
//
MOLECULE: Cc1ccc(NC(=O)/C(=C\c2cccc([N+](=O)[O-])c2)NC(=O)c2cccs2)cc1
LABEL_VALUE: inactive
//
MOLECULE: CCn1c(-c2nonc2NC(=O)c2ccccc2)nc2ccccc21
LABEL_VALUE: active
//
MOLECULE: Cc1oc2c(C)c(O)ccc2c(=O)c1-c1ccc2ccccc2n1
LABEL_VALUE: active
//
MOLECULE: Cc1nc2ccccn2c1/C(O)=C1\C(=O)C(=O)N(CCCn2ccnc2)C1c1ccncc1 (stereo unspecified)
LABEL_VALUE: inactive
//
MOLECULE: CCn1cc(C(=O)O)c(=O)c2cc(F)c(N3CCN[C@@H](C)C3)c(F)c21
LABEL_VALUE: inactive
//
MOLECULE: COc1ccc(CNc2nc(-c3cccc(C#N)c3)nc3ccccc23)c(OC)c1
LABEL_VALUE: active
//
MOLECULE: CCS(=O)(=O)N1CCC(C(=O)NCCCOC)CC1
LABEL_VALUE: inactive
//
MOLECULE: O=C(O)c1ccccc1OP(=O)(O)O
LABEL_VALUE: inactive
//
MOLECULE: CCc1cc2c(Sc3nc4ccccc4s3)ncnc2s1
LABEL_VALUE: active
//
MOLECULE: O=C1c2ccccc2C(=O)N1Cc1cc(-c2ccccc2Cl)no1
LABEL_VALUE: active
//
MOLECULE: COc1ccc(CNc2nc(-c3cccc(NS(C)(=O)=O)c3)nc3ccccc23)c(OC)c1
LABEL_VALUE: active
//
MOLECULE: O=S(=O)(NCc1cc(-c2ccccc2Cl)no1)c1ccccc1
LABEL_VALUE: active
//
MOLECULE: COc1ccc(/C=N/OCc2nc3c4c(ncn3n2)Oc2ccc3ccccc3c2C4c2ccccc2)cc1 (stereo unspecified)
LABEL_VALUE: inactive
//
MOLECULE: Cc1n[nH]c(=S)n1/N=C/c1ccccc1OCc1ccc(Cl)cc1
LABEL_VALUE: active
//
MOLECULE: CCc1cc2c(=O)c(-c3nc4ccccc4n3C)c(C)oc2c(CN(CC)CC)c1O
LABEL_VALUE: inactive
//
MOLECULE: O=c1cc(-c2ccccc2)[nH]c2nc(Cl)ccc12
LABEL_VALUE: active
//
MOLECULE: Cc1nc(SCc2cccc(Oc3ccccc3)c2)n[nH]1
LABEL_VALUE: active
//
MOLECULE: CC(C)(C)NC(=O)NC(=O)CSc1nnc2ccccn12
LABEL_VALUE: inactive
//
MOLECULE: Cn1cccc1C(=O)N1CCC2(CC1)CCN(c1ncccn1)CC2
LABEL_VALUE: inactive
//
MOLECULE: CC[C@]1(c2ncc[nH]2)Cc2ccccc2O1
LABEL_VALUE: inactive
//
MOLECULE: CCNc1ncc2nc(-c3cccs3)c(=O)n(CCC#N)c2n1
LABEL_VALUE: active
//
MOLECULE: CN(C)S(=O)(=O)c1cc([N+](=O)[O-])ccc1N1CCCCCC1
LABEL_VALUE: active
//
MOLECULE: O=C1[C@@H]2C=CC=CC2=NC(=S)N1CCN1CCC(=C(c2ccc(F)cc2)c2ccc(F)cc2)CC1
LABEL_VALUE: inactive
//
MOLECULE: COc1ccc(S(=O)(=O)NCCC(=O)NCc2ccc(F)cc2)cc1
LABEL_VALUE: inactive
//
MOLECULE: COc1ccc(CCC(C)NC2C3CC4CC(C3)CC2C4)cc1 (stereo unspecified)
LABEL_VALUE: inactive
//
MOLECULE: COC(=O)c1sccc1NC(=O)CN(C)NS(=O)(=O)c1ccc(F)cc1
LABEL_VALUE: active
//
MOLECULE: CN1CCc2c(c3c(n2C)CCN(C)[C@H]3c2ccccc2F)[C@@H]1c1ccccc1F
LABEL_VALUE: inactive
//
MOLECULE: CC(C)=CC(=O)OCC(=O)Nc1ncc(Cl)c(C)c1Cl
LABEL_VALUE: active
//
MOLECULE: Cc1c(Cl)cnc(NC(=O)COC(=O)CCS(=O)(=O)c2ccccc2)c1Cl
LABEL_VALUE: active
//
MOLECULE: CC(C)NC(=O)N1CCCC2(CCN(C(=O)c3ccco3)CC2)C1
LABEL_VALUE: inactive
//
MOLECULE: Cc1nc2ccccn2c1C(=O)CSc1ccccc1Cl
LABEL_VALUE: active
//
MOLECULE: O=C(NCc1ccc(F)cc1)C(c1ccncc1)N(C(=O)c1csnn1)C1CC1 (stereo unspecified)
LABEL_VALUE: inactive
//
MOLECULE: Cc1n[nH]c(=O)nc1NCc1ccccc1Cl
LABEL_VALUE: inactive
//
MOLECULE: Cc1ccc(S(=O)(=O)N2CCOCC2)cc1NC(=O)COC(=O)CCC(=O)c1cccs1
LABEL_VALUE: inactive
//
MOLECULE: O=C(CCn1nc(-c2ccc(Cl)cc2)ccc1=O)N1CCOCC1
LABEL_VALUE: inactive
//
MOLECULE: Cn1c(=O)n(-c2ccc(Cl)cc2)c(=O)c2c3c(sc21)COC(C)(C)C3
LABEL_VALUE: active
//
MOLECULE: CC12CCC(C(=O)O)(C/C1=N\O)C2(C)C (stereo unspecified)
LABEL_VALUE: inactive
//
MOLECULE: CCN=C1NN=C(c2ccc(C)cc2)CS1
LABEL_VALUE: active
//
MOLECULE: Cc1cc(-c2ccccc2)[nH]c(=O)c1S(=O)(=O)c1ccc(Cl)cc1
LABEL_VALUE: inactive
//
MOLECULE: CCCNC(=O)NS(=O)(=O)c1ccc(Cl)cc1
LABEL_VALUE: inactive
//
MOLECULE: CCn1nccc1C(=O)Nc1nc2ccccc2n1CCN1CCCCC1
LABEL_VALUE: inactive
//
MOLECULE: CCCC(=O)Nc1ccc(C(=O)NNC(=S)NC(=O)c2cccs2)cc1
LABEL_VALUE: inactive
//
MOLECULE: COc1ccccc1CNc1ccnc(-c2ccccc2Cl)n1
LABEL_VALUE: active
//
MOLECULE: O/N=C/c1cc(Cl)ccc1OCc1cccc2ccccc12
LABEL_VALUE: active
//
MOLECULE: O=C(O)c1ccccc1/C=N\N=C1c2ccccc2-c2ccccc21
LABEL_VALUE: active
